Data origin: PubChem BioAssay (NCI)

Experiment: NCI Yeast Anticancer Drug Screen. Data for the rad50 strain (AID 155);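 note: 0% = growth of vehicle-only cultures of the same strain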
Conditions: S. cerevisiae rad50 strain growth inhibition; at 50.0 µM (retest, dose inferred, filed as 5.0)
Compounds without any hit were thinned out: in the full panel of roughly 79,000, 15% have a hit. Active and inactive are the calls of the source. Cut-off read from the data, not from the text of the source: active = growth inhibition above about 70%; inactive = the rest.
Respond with a class label; see true (1) for active, false (0) for inactive

> print(dat)
                                   compound  category.label
1  O=C(NCCN1CCCC1)c1cn2c(ccc3sc4ccccc4c(=O)c32)n1        true (1)
2  CCOC(=O)C1=C(N)OC(c2ccccc2)=C(C#N)C1c1ccc(C)cc1 (stereo not given)        true (1)
3  CC1(C)CC(=O)C2=C(C1)Nc1ccccc1CC2c1c[nH]c2ccccc12 (stereo not given)        true (1)
4  Nc1c2c(=O)[nH]c(=O)c2c(N)c2c(=O)c3ccccc3c(=O)c12       false (0)
5   CCCCCCC(=O)Nc1ccc(OC(=O)CCCCCC)c(=O)cc1        true (1)
6  O=S(=O)(Nc1cccc(C2=NCCN2)c1)c1ccc2c(S(=O)(=O)Nc3cccc(C4=NCCN4)c3)cccc2c1       false (0)
7  C=C1C(=O)O[C@@H]2CC(CO)=C([C@@H](C)CCCO)[C@@H](OC(=O)/C(C)=C\C)[C@H]12       false (0)
8            Cc1cnc2c(c1C)C(=O)c1ccccc1C2=O        true (1)

Request: Could you check what this test reported for "CCc1c(C(=O)OC)c(C(=O)OC)c(-c2ccccc2)n1CCn1c(CC)c(C(=O)OC)c(C(=O)OC)c1-c1ccccc1" ?
Result: true (1)

Request: Could you check what this test reported for "Nc1ccc2ccccc2c1N=Nc1ccccc1" ?
Result: true (1)
